Target: Human DR5 (Homo sapiens, UniProt O14763)
Assay: Binding affinity of antibody to human DR5 (BIAcore, CM5 chip)
Settings: equilibrium dissociation constant, Human DR5
experimental-readout: Kd

molecule	measured-result
DA32: humanized or deimmunized variant of parental clone D0; CDRs SEQ ID NO 1, 2, 7 / 4, 10, 13 (antibody, V domains shown) VH: AVTLDESGGGLQTPGGGLSLVCKGSGFTFSSFNMLWVRQAPGKGLEWVAGIGKSDRYTGYGSAVKGRATISRDDGQSTVRLQLNNLRAEDTAVYYCVKDAGSGCGSGGWTGACIDTWGHGTEVIVSS VL: LTQPSSVSANLGGTVEITCSGGDSYAGSYYYGWYQQKAPGSAPVTVIYNNNNRPSNIPSRFSGSTSGSTATLTITGVQAEDEAVYFCGSRDSSYVGIFGAGTTLTVL	0.0751 nM

Then this molecule:
Task: Find the recorded Kd belonging to DA27: humanized or deimmunized variant of parental clone D0; CDRs SEQ ID NO 1, 2, 7 / 4, 10, 13 (antibody, V domains shown) VH: AVTLDESGGGLQTPGGGLSLVCKGSGFTFSSFNMLWVRQAPGKGLEWVAGIGKSDRYTGYGSAVKGRATISRDDGQSTVRLQLNNLRAEDTGTYYCVKDAGSGCGSGGWTGACIDTWGHGTEVIVSS VL: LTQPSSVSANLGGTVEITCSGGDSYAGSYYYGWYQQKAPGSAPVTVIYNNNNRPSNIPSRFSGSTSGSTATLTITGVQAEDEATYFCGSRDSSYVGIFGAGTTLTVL and report it.
Output: 0.00192 nM
